IC50 overview
# System: Wnt signaling
# ASSAY REMARKS: TopFlash reporter gene bioassay in SW480 cells
# Type: cell-based
# EXPERIMENTAL CONDITIONS: Homo sapiens, SW480, TopFlash reporter gene assay, inhibition of Wnt signaling; read-out: RGA, IC50 (μM) TopF
OBSERVABLE: IC50 (µM)

| GIVEN SMILES | OBSERVABLE | REPORTED |
| --- | --- | --- |
| C=CCN1CC(=O)N2[C@@H](Cc3ccc(O)cc3)C(=O)N(Cc3cccnc3N3CCC(N4CCCC4)CC3)C[C@@H]2N1C(=O)NCc1ccccc1 | IC50 | 25.9 |
| C=CCN1CC(=O)N2[C@@H](Cc3ccc(O)cc3)C(=O)N(Cc3cccc4c(C(C)=O)cn(S(=O)(=O)c5ccc(C)cc5)c34)C[C@@H]2N1C(=O)NCc1ccccc1 | IC50 | 0.084 |
| C=CCN1CC(=O)N2[C@@H](Cc3ccc(O)cc3)C(=O)N(Cc3cccc(C(=O)N4CCCCC4)c3)C[C@@H]2N1C(=O)NCc1ccccc1 | IC50 | 1.42 |
| C=CCN1CC(=O)N2[C@@H](Cc3ccc(O)cc3)C(=O)N(Cc3ccc(OCCC)cc3)C[C@@H]2N1C(=O)NCc1ccccc1 | IC50 | 6.66 |
| C=CCN1CC(=O)N2[C@@H](Cc3ccc(OS(N)(=O)=O)cc3)C(=O)N(Cc3cccc4c(C(C)=O)c[nH]c34)C[C@@H]2N1C(=O)NCc1ccccc1 | IC50 | 0.53 |
| C=CCN1CC(=O)N2[C@@H](Cc3ccc(O)cc3)C(=O)N(Cc3ccnc(N)n3)C[C@@H]2N1C(=O)NCc1ccccc1 | IC50 | 9.11 |
